tested on: Candida krusei; experiment: NCCLS broth dilution combination study in yeast (modified M27-T), Candida krusei isolate; format: cell-based; conditions: interpretation of FICI; MIC = 80% inhibition of growth, 48 hours; isolate resistant to terbinafine
endpoint name: Interaction with terbinafine, C. krusei

smiles representation	measured result
C=CC[C@@H]1/C=C(\C)C[C@H](C)C[C@H](OC)[C@H]2O[C@@](O)(C(=O)C(=O)N3CCCC[C@H]3C(=O)O[C@H](/C(C)=C/[C@@H]3CC[C@@H](O)[C@H](OC)C3)[C@H](C)[C@@H](O)CC1=O)[C@H](C)C[C@@H]2OC	(* ((*: synergy)
CC[C@@H]1/C=C(\C)C[C@H](C)C[C@H](OC)[C@H]2O[C@@](O)(C(=O)C(=O)N3CCCC[C@H]3C(=O)O[C@H](/C(C)=C/[C@@H]3CC[C@@H](O)[C@H](OC)C3)[C@H](C)[C@@H](O)CC1=O)[C@H](C)C[C@@H]2OC	(* ((*: synergy)
